# assayedTarget: C. elegans iPGM (Caenorhabditis elegans, UniProt G5EFZ1)
# procedureText: SPR binding kinetics and saturation binding, biotinylated iPGM on Biotin CAPture chip (Biacore S200)
assayReadout: koff (s⁻¹)
Provide the reading as a plain figure in s⁻¹.

Tell me reported koff for CC(C)C[C@H](NC(=O)[C@H](Cc1ccc(O)cc1)NC(=O)[C@@H]1CSCC(=O)N[C@H](Cc2ccc(O)cc2)C(=O)N[C@@H](CC(=O)O)C(=O)N[C@@H](Cc2ccc(O)cc2)C(=O)N2CCC[C@H]2C(=O)NCC(=O)N[C@@H](CC(=O)O)C(=O)N[C@@H](Cc2ccc(O)cc2)C(=O)N1)C(=O)N[C@@H](Cc1ccc(O)cc1)C(=O)NCC(=O)NCC(=O)N[C@@H](CS)C(N)=O [Ce-2 T13G] , tested with C. elegans iPGM (Caenorhabditis elegans, UniProt G5EFZ1).
5.77e-05

* * *

# assayedTarget: C. elegans iPGM (Caenorhabditis elegans)
# procedureText: SPR binding kinetics and saturation binding, biotinylated iPGM on Biotin CAPture chip (Biacore S200)
assayReadout: kon (M⁻¹ s⁻¹)
Provide the reading as a plain figure in M⁻¹ s⁻¹.

In the examples that follow, each entry is paired with its recorded kon.
>>> recordednumber("CC(C)C[C@H](NC(=O)[C@H](Cc1ccc(O)cc1)NC(=O)[C@@H]1CSCC(=O)N[C@H](Cc2ccc(O)cc2)C(=O)N[C@@H](CC(=O)O)C(=O)N[C@@H](Cc2ccc(O)cc2)C(=O)N2CCC[C@H]2C(=O)NCC(=O)N[C@@H](CC(=O)O)C(=O)N[C@@H](Cc2ccc(O)cc2)C(=O)N1)C(=O)N[C@@H](Cc1ccc(O)cc1)C(=O)NCC(=O)N[C@@H](CO)C(=O)N[C@@H](CS)C(N)=O")
"2.86e+06"
>>> recordednumber("CC(C)C[C@H](NC(=O)[C@H](Cc1ccc(O)cc1)NC(=O)[C@@H]1CSCC(=O)N[C@H](Cc2ccc(O)cc2)C(=O)N[C@@H](CC(=O)O)C(=O)N[C@@H](Cc2ccc(O)cc2)C(=O)N2CCC[C@H]2C(=O)NCC(=O)N[C@@H](CC(=O)O)C(=O)N[C@@H](Cc2ccc(O)cc2)C(=O)N1)C(=O)N[C@@H](Cc1ccc(O)cc1)C(=O)NCC(=O)N[C@@H](Cc1c[nH]cn1)C(=O)N[C@@H](CS)C(N)=O [Ce-2 T13H]")
752000

kon for CC(C)C[C@H](NC(=O)[C@H](Cc1ccc(O)cc1)NC(=O)[C@@H]1CSCC(=O)N[C@H](Cc2ccc(O)cc2)C(=O)N[C@@H](CC(=O)O)C(=O)N[C@@H](Cc2ccc(O)cc2)C(=O)N2CCC[C@H]2C(=O)NCC(=O)N[C@@H](CC(=O)O)C(=O)N[C@@H](Cc2ccc(O)cc2)C(=O)N1)C(=O)N[C@@H](Cc1ccc(O)cc1)C(=O)NCC(=O)N[C@H](C(=O)N[C@@H](CS)C(N)=O)[C@@H](C)O ?
1.11e+06

* * *

Listing of entries alongside the reported IC50.
# assayedTarget: D. immitis iPGM (Dirofilaria immitis)
# procedureText: biochemical
# conditionsUsed: IC50 (M)
Bridge positions count the residues as written; N and C are the ends. Square brackets hold non-standard residues; d marks the D form. Peptide text beside a SMILES is read from it. Nva = CCC[C@H](N)C(=O)O; Abu = CC[C@H](N)C(=O)O
Provide the reading as a plain figure in M.

In the examples that follow, each entry is paired with its recorded IC50.
>>> recordednumber("CC(C)C[C@H](NC(=O)[C@H](Cc1ccc(O)cc1)NC(=O)[C@@H]1CSCC(=O)N[C@H](Cc2ccc(O)cc2)C(=O)N[C@@H](CC(N)=O)C(=O)N[C@@H](Cc2ccc(O)cc2)C(=O)N2CCC[C@H]2C(=O)NCC(=O)N[C@@H](CC(=O)O)C(=O)N[C@@H](Cc2ccc(O)cc2)C(=O)N1)C(=O)N[C@@H](Cc1ccc(O)cc1)C(=O)NCC(=O)N[C@H](C(=O)N[C@@H](CS)C(N)=O)[C@@H](C)O [Ce-2 D2N] ({CH2CO}-[dY]NYPGDYCYLYGTC-NH2; thioether N-8)")
"1.87e-09"
>>> recordednumber("CC(C)C[C@H](NC(=O)[C@H](Cc1ccccc1)NC(=O)[C@@H]1CSCC(=O)N[C@H](Cc2ccc(O)cc2)C(=O)N[C@@H](CC(=O)O)C(=O)N[C@@H](Cc2ccc(O)cc2)C(=O)N2CCC[C@H]2C(=O)NCC(=O)N[C@@H](CC(=O)O)C(=O)N[C@@H](Cc2ccc(O)cc2)C(=O)N1)C(=O)N[C@@H](Cc1ccc(O)cc1)C(=O)NCC(=O)N[C@H](C(=O)N[C@@H](CS)C(N)=O)[C@@H](C)O [Ce-2 Y9F] ({CH2CO}-[dY]DYPGDYCFLYGTC-NH2; thioether N-8)")
"2.79e-09"

IC50 for CC[C@@H]1NC(=O)[C@@H](Cc2ccc(O)cc2)NC(=O)CSC[C@@H](C(=O)N[C@@H](Cc2ccc(O)cc2)C(=O)N[C@@H](CC(C)C)C(=O)N[C@@H](Cc2ccc(O)cc2)C(=O)NCC(=O)N[C@H](C(=O)N[C@@H](CS)C(N)=O)[C@@H](C)O)NC(=O)[C@H](Cc2ccc(O)cc2)NC(=O)[C@H](CC(=O)O)NC(=O)CNC(=O)[C@@H]2CCCN2C(=O)[C@H](Cc2ccc(O)cc2)NC1=O [Ce-2 D2Abu] ({CH2CO}-[dY][Abu]YPGDYCYLYGTC-NH2; thioether N-8) ?
1.57e-09

IC50 for CC(C)C[C@H](NC(=O)[C@H](Cc1ccc(O)cc1)NC(=O)[C@@H]1CSCC(=O)N[C@H](Cc2ccc(O)cc2)C(=O)N[C@@H](CC(=O)O)C(=O)N[C@@H](Cc2ccc(O)cc2)C(=O)N2CCC[C@H]2C(=O)NCC(=O)N[C@@H](CC(=O)O)C(=O)N[C@@H](Cc2ccccc2)C(=O)N1)C(=O)N[C@@H](Cc1ccc(O)cc1)C(=O)NCC(=O)N[C@H](C(=O)N[C@@H](CS)C(N)=O)[C@@H](C)O [Ce-2 Y7F] ?
1.78e-09

IC50 for CCC[C@@H]1NC(=O)[C@@H](Cc2ccc(O)cc2)NC(=O)CSC[C@@H](C(=O)N[C@@H](Cc2ccc(O)cc2)C(=O)N[C@@H](CC(C)C)C(=O)N[C@@H](Cc2ccc(O)cc2)C(=O)NCC(=O)N[C@H](C(=O)N[C@@H](CS)C(N)=O)[C@@H](C)O)NC(=O)[C@H](Cc2ccc(O)cc2)NC(=O)[C@H](CC(=O)O)NC(=O)CNC(=O)[C@@H]2CCCN2C(=O)[C@H](Cc2ccc(O)cc2)NC1=O [Ce-2 D2Nva] ({CH2CO}-[dY][Nva]YPGDYCYLYGTC-NH2; thioether N-8) ?
1.46e-09

* * *

# assayedTarget: C. elegans iPGM (Caenorhabditis elegans, UniProt G5EFZ1)
# procedureText: SPR binding kinetics and saturation binding, biotinylated iPGM on Biotin CAPture chip (Biacore S200)
Bridge positions count the residues as written; N and C are the ends. Square brackets hold non-standard residues; d marks the D form. Peptide text beside a SMILES is read from it. Abu = CC[C@H](N)C(=O)O
assayReadout: koff (s⁻¹)
Provide the reading as a plain figure in s⁻¹.

In the examples that follow, each entry is paired with its recorded koff.
>>> recordednumber("CC(C)C[C@H](NC(=O)[C@H](Cc1ccc(O)cc1)NC(=O)[C@@H]1CSCC(=O)N[C@H](Cc2ccc(O)cc2)C(=O)N[C@@H](CC(=O)O)C(=O)N[C@@H](Cc2ccc(O)cc2)C(=O)N2CCC[C@H]2C(=O)NCC(=O)N[C@@H](CC(=O)O)C(=O)N[C@@H](Cc2c[nH]cn2)C(=O)N1)C(=O)N[C@@H](Cc1ccc(O)cc1)C(=O)NCC(=O)N[C@H](C(=O)NO)[C@@H](C)O")
0.000171
>>> recordednumber("CC(C)C[C@H](NC(=O)[C@H](Cc1ccc(O)cc1)NC(=O)[C@@H]1CSCC(=O)N[C@H](Cc2ccc(O)cc2)C(=O)N[C@@H](CC(=O)O)C(=O)N[C@@H](Cc2ccc(O)cc2)C(=O)N2CCC[C@H]2C(=O)NCC(=O)N[C@@H](CC(=O)O)C(=O)N[C@@H](Cc2ccc(O)cc2)C(=O)N1)C(=O)N[C@@H](Cc1ccc(O)cc1)C(=O)NCC(=O)N[C@@H](Cc1c[nH]cn1)C(=O)N[C@@H](CS)C(N)=O [Ce-2 T13H]")
"1.98e-05"
>>> recordednumber("CC(C)C[C@H](NC(=O)[C@H](Cc1ccc(O)cc1)NC(=O)[C@@H]1CSCC(=O)N[C@H](Cc2ccc(O)cc2)C(=O)N[C@@H](CC(=O)O)C(=O)N[C@@H](Cc2ccc(O)cc2)C(=O)N2CCC[C@H]2C(=O)NCC(=O)N[C@@H](CC(=O)O)C(=O)N[C@@H](Cc2ccc(O)cc2)C(=O)N1)C(=O)N[C@@H](Cc1ccc(O)cc1)C(=O)NCC(=O)NCC(=O)NO [Ce-2 T13G, C14NHOH]")
0.00251

Tell me reported koff for CC(C)C[C@H](NC(=O)[C@H](Cc1ccc(O)cc1)NC(=O)[C@@H]1CSCC(=O)N[C@H](Cc2ccc(O)cc2)C(=O)N[C@@H](CC(=O)O)C(=O)N[C@@H](Cc2ccc(O)cc2)C(=O)N[C@@H](C(C)C)C(=O)NCC(=O)N[C@@H](CC(=O)O)C(=O)N[C@@H](Cc2ccc(O)cc2)C(=O)N1)C(=O)N[C@@H](Cc1ccc(O)cc1)C(=O)NCC(=O)N[C@H](C(=O)N[C@@H](CS)C(N)=O)[C@@H](C)O , tested with C. elegans iPGM (Caenorhabditis elegans, UniProt G5EFZ1).
1.15e-05

Tell me reported koff for CC[C@@H]1NC(=O)[C@@H](Cc2ccc(O)cc2)NC(=O)CSC[C@@H](C(=O)N[C@@H](Cc2ccc(O)cc2)C(=O)N[C@@H](CC(C)C)C(=O)N[C@@H](Cc2ccc(O)cc2)C(=O)NCC(=O)N[C@H](C(=O)N[C@@H](CS)C(N)=O)[C@@H](C)O)NC(=O)[C@H](Cc2ccc(O)cc2)NC(=O)[C@H](CC(=O)O)NC(=O)CNC(=O)[C@@H]2CCCN2C(=O)[C@H](Cc2ccc(O)cc2)NC1=O [Ce-2 D2Abu] ({CH2CO}-[dY][Abu]YPGDYCYLYGTC-NH2; thioether N-8) , tested with C. elegans iPGM (Caenorhabditis elegans, UniProt G5EFZ1).
4.55e-05
